- Tested on: BDF1 mice, P388 leukemia ip, median survival T/C
- assay-overview: NCI In Vivo Anticancer Drug Screen. Data for tumor model P388 Leukemia (intraperitoneal) in B6D2F1 (BDF1) mice
- experimental-context: endpoint: median survival time; dose: 5.0 mg/kg/injection; schedule: Q01DX009 (ip); vehicle: saline; higher = longer survival
Toxic doses and inconclusive results are not listed.
This section presents compounds with their documented T/C values.

Item under review: CCCCNC1=C(N2CC2)C(=O)C(NCCCC)=C(N2CC2)C1=O . Reported T/C?
87 % of control

Same again, this time with COc1cc2cc[n+]3c(C)c4ccc(OC)c(OC)c4cc3c2cc1OC (tested in a mixture with another compound)
117 % of control

Same again, this time with c1ccc([C@H]2CN3CCSC3=N2)cc1
100 % of control

Same again, this time with CCOc1ccc([N+](=O)[O-])cc1CN(CC)CC
104 % of control

Same again, this time with CC1OC(n2ccc(NC(=O)c3ccc(NC(=O)C(C)(N)CO)cc3)nc2=O)CC(O)C1OC1OC(C)C(N(C)C)C(O)C1O (stereo not given)
103 % of control

----------
- Tested on: BDF1 mice, P388 leukemia ip, median survival T/C
- assay-overview: NCI In Vivo Anticancer Drug Screen. Data for tumor model P388 Leukemia (intraperitoneal) in B6D2F1 (BDF1) mice
- experimental-context: endpoint: median survival time; dose: 50.0 mg/kg/injection; schedule: Q01DX009 (ip); vehicle: saline; higher = longer survival
Toxic doses and inconclusive results are not listed.
This section presents compounds with their documented T/C values.

# example entries with known answers
{"columns": ["molecular-string", "T/C"],
 "data": [
  ["CN1CCN(C(=O)N2c3ccccc3Sc3ccccc32)CC1", "100 % of control"],
  ["S=C1CCNCC1", "100 % of control"],
  ["CN(C)NCCC#N", "100 % of control"],
  ["CC1=NN(c2ccc(S(=O)(=O)O)cc2)C(=O)/C1=C/c1ccc(Cl)cc1", "92 % of control"],
  ["CCCCOC(=O)C1(N)CCCC1", "104 % of control"]
]}

Item under review: COc1ccc2nc(C)c(COC(C)=O)c(Cl)c2c1 . Reported T/C?
104 % of control

Same again, this time with NC(N)=N/N=C/C(Cl)Cl
104 % of control

Same again, this time with Cc1ccccc1OS(=O)(=O)C(F)(F)C(F)(F)C(F)(F)C(F)(F)F
100 % of control

Same again, this time with CCOC(=O)/C(C)=C\c1c(C)[nH]c(=O)[nH]c1=O
102 % of control

Same again, this time with Cc1cc[n+](CCc2ccccc2)cc1
112 % of control

Same again, this time with CC(=O)CC(=O)Nc1nc2ccccc2s1
94 % of control

Same again, this time with O=C(O)C1CC[N-]CC1.O=C(O)C1CC[N-]CC1.O=C(O)C1CC[N-]CC1.O=C(O)C1CC[N-]CC1.[Br][Rh][Br]
111 % of control

----------
- Test system: BDF1 mice, P388 leukemia ip, median survival T/C
- assay-overview: NCI In Vivo Anticancer Drug Screen. Data for tumor model P388 Leukemia (intraperitoneal) in B6D2F1 (BDF1) mice
- experimental-context: endpoint: median survival time; dose: 200.0 mg/kg/injection; schedule: Q04DX003 (ip); vehicle: saline with Tween-80; higher = longer survival
Inconclusive results and toxic doses are left out.
readout-label: T/C

# example entries with known answers
{"columns": ["molecule", "T/C"],
 "data": [
  ["CCNC(=O)Nc1ccc(N(CC)CC)cc1", "100 % of control"],
  ["CCC(CC)OC(=O)c1cccc(C)c1", "101 % of control"],
  ["Nc1ccc(S(=O)(=O)Nc2ccc([N+](=O)[O-])cc2)cc1", "112 % of control"],
  ["NC(=S)S/C=C/C(=O)O", "103 % of control"]
]}

Lab note: need T/C with BDF1 mice, P388 leukemia ip, median survival T/C for entry N#CCC(NC(=O)OCc1ccccc1)C(=O)OCc1ccccc1 (configuration not stated) , please look it up.
94 % of control

Same again, this time with CCCCCCCCCCCCOc1ccc(C)cc1
100 % of control

Same again, this time with OC1(O)CCN(Cc2ccccc2)CC1
105 % of control

----------
- System: BDF1 mice, P388 leukemia ip, median survival T/C
- assay-overview: NCI In Vivo Anticancer Drug Screen. Data for tumor model P388 Leukemia (intraperitoneal) in B6D2F1 (BDF1) mice
- experimental-context: endpoint: median survival time; dose: 12.5 mg/kg/injection; schedule: Q04DX003 (ip); vehicle: saline with Tween-80
- Method: The antitumor activity of compounds was measured in mice bearing transplantable tumors. Survival or tumor size were measured and the results are expressed as the measurement made in the treated group (T) divided by the measurement made in the vehicle treated control group (C). The tumor model used in this assay is P388 Leukemia (intraperitoneal) in B6D2F1 (BDF1) mice
Toxic doses and inconclusive results are not listed. The calls were made as follows: active = survival T/C of 150% or more; inactive = T/C below 125% in these data.
Your answer must be one of the following: active, inactive

These recorded examples may help you get a feel for the data.
{"columns": ["compound", "discrete-label"],
 "data": [
  ["CCOC(=O)C(Cc1ccc(N(CCCl)CCCl)cc1)NC(=O)CNC(C)=O (stereo unspecified)", "active"],
  ["CCCC(O)Cc1c[nH]c(=O)[nH]c1=O (stereo unspecified)", "inactive"],
  ["CC(C)(O)C1C2OC(=O)C1C1(O)CC3OC34C(=O)OC2C14C (stereo unspecified)", "inactive"],
  ["CC1CN(Cc2ccc([N+](=O)[O-])cc2)CC(C)N1N (stereo unspecified)", "inactive"],
  ["COc1cc(C=NCCN=Cc2cc(OC)c(OC)c(OC)c2)cc(OC)c1OC", "inactive"]
]}

Short answer needed: outcome of this test for Cc1cc(N/N=C/c2ccc(N(CCCl)CCCl)cc2)c2cc3c(cc2n1)OCO3 ?
inactive

----------
This section presents molecules with their documented T/C values.
- System: BDF1 mice, P388 leukemia ip, median survival T/C
- assay-overview: NCI In Vivo Anticancer Drug Screen. Data for tumor model P388 Leukemia (intraperitoneal) in B6D2F1 (BDF1) mice
- experimental-context: endpoint: median survival time; dose: 100.0 mg/kg/injection; schedule: Q01DX005 (ip); vehicle: saline with Tween-80; higher = longer survival
Toxic doses and inconclusive results are not listed.

# example entries with known answers
{"columns": ["molecule", "assayed-target", "readout-label", "recorded-result"],
 "data": [
  ["CC(C)(C)C1CNP(=O)(c2ccccc2)OC1 (stereo unspecified)", "BDF1 mice, P388 leukemia ip, median survival T/C", "T/C", "101 % of control"],
  ["COC(=O)c1cc(=O)nc(N/N=C/c2ccc(OC)cc2)s1", "BDF1 mice, P388 leukemia ip, median survival T/C", "T/C", "102 % of control"],
  ["Nc1cc(=O)n(Cc2ccco2)c(=S)[nH]1", "BDF1 mice, P388 leukemia ip, median survival T/C", "T/C", "102 % of control"],
  ["COc1cc(N=Nc2ccc(O)c3ncccc23)c(OC)cc1N=Nc1ccc([N+](=O)[O-])cc1", "BDF1 mice, P388 leukemia ip, median survival T/C", "T/C", "111 % of control"],
  ["O=c1oc(-c2ccc(C[n+]3ccc4ccccc4c3)cc2)nc2ccccc12", "BDF1 mice, P388 leukemia ip, median survival T/C", "T/C", "99 % of control"]
]}

Lab note: need T/C with BDF1 mice, P388 leukemia ip, median survival T/C for entry Cn1c2ccccc2c(=S)c2c(O)cc3c(c21)C=CC(C)(C)O3 , please look it up.
90 % of control

Same again, this time with O=C1Cc2cc(=C(c3ccccc3)c3ccccc3)ccc2=C1c1ccccc1
96 % of control

Same again, this time with C=CC(C)C(C)(OCc1ccccc1)C(=O)O (stereo unspecified)
113 % of control

Same again, this time with O=C1CN(Cc2ccccc2)CC(=O)N2Cc3ccccc3CN12
101 % of control

Same again, this time with CN1CC([N+](=O)[O-])C(=O)C([N+](=O)[O-])C1 (stereo unspecified)
87 % of control

Same again, this time with CC(C)(C)OC(=O)NC(CCCNC(=O)OCc1ccccc1)C(=O)NC(CCCNC(=O)OCc1ccccc1)C(=O)OCc1ccccc1 (stereo unspecified)
92 % of control

----------
- Tested on: BDF1 mice, P388 leukemia ip, median survival T/C
- assay-overview: NCI In Vivo Anticancer Drug Screen. Data for tumor model P388 Leukemia (intraperitoneal) in B6D2F1 (BDF1) mice
- experimental-context: endpoint: median survival time; dose: 50.0 mg/kg/injection; schedule: Q01DX001 (ip); vehicle: saline with Tween-80; higher = longer survival
Inconclusive results and toxic doses are left out.
readout-label: T/C

# example entries with known answers
{"columns": ["molecule", "assayed-target", "T/C"],
 "data": [
  ["CCOC1CCC(C(C)=O)C(C#N)(C#N)C1(C#N)C#N (centres undefined)", "BDF1 mice, P388 leukemia ip, median survival T/C", "124 % of control"],
  ["C1=C(c2ccccc2)CS1", "BDF1 mice, P388 leukemia ip, median survival T/C", "101 % of control"],
  ["O=C(O)c1ccccc1Nc1ccc(Br)cc1", "BDF1 mice, P388 leukemia ip, median survival T/C", "100 % of control"],
  ["CCCCCCCCCCCCCCCCCOc1ccc(I)cc1", "BDF1 mice, P388 leukemia ip, median survival T/C", "95 % of control"],
  ["CSc1c(C)[nH]c2ccc([N+](=O)[O-])cc12", "BDF1 mice, P388 leukemia ip, median survival T/C", "111 % of control"],
  ["CN(C)C(=O)Nc1ccc(Cl)cc1", "BDF1 mice, P388 leukemia ip, median survival T/C", "95 % of control"],
  ["CCCCCCCCCCCCCCCCOc1ccc(CC)cc1", "BDF1 mice, P388 leukemia ip, median survival T/C", "95 % of control"],
  ["CCCCCCCCCCCCCCCCCCOc1cccc(C(F)(F)F)c1", "BDF1 mice, P388 leukemia ip, median survival T/C", "105 % of control"]
]}

Note: attention shifts to another entry.
Lab note: need T/C with BDF1 mice, P388 leukemia ip, median survival T/C for entry CC(=O)Nc1ccc(NC2=NCCO2)cc1 , please look it up.
100 % of control
